Tested on: FHC
EXPERIMENT_SUMMARY: Cytotoxicity against human FHC cells after 72 hrs by MTT assay
Type: cell-based
Readings of IC50 for the listed compounds
PROPERTY_LABEL: IC50

* CCN(CC)CCCOc1cc2nccc(Oc3c(F)cc(NC(=O)NN4C(=O)CSC4c4c(F)cccc4F)cc3F)c2cc1OC (stereo not drawn) | 0.54 µM
* COc1cc2nccc(Oc3ccc(NC(=O)C4(C(=O)Nc5ccc(F)cc5)CC4)cc3)c2cc1OC [CABOZANTINIB] | 4.4 µM
* CCN1CCN(CCCOc2cc3nccc(Oc4c(F)cc(NC(=O)NN5C(=O)CSC5c5c(F)cccc5F)cc4F)c3cc2OC)CC1 (stereo not drawn) | 1.18 µM

====

EXPERIMENT_SUMMARY: Antiproliferative activity against human MCF7/DX cells after 72 hrs by MTT assay
Type: functional, cell-based
Readings of IC50 for the listed compounds
PROPERTY_LABEL: IC50 (µM)

• CCN1CCN(CCCOc2cc3nccc(Oc4c(F)cc(NC(=O)NN5C(=O)CSC5c5c(F)cccc5F)cc4F)c3cc2OC)CC1 (stereo not drawn) = 3.8
• CCN(CC)CCCOc1cc2nccc(Oc3c(F)cc(NC(=O)NN4C(=O)CSC4c4c(F)cccc4F)cc3F)c2cc1OC (stereo not drawn) = 3.4
